The measurements presented in this section are drawn from patent EP2924037A1.

SUBJECT OF TEST: pgk1 (Mus musculus, UniProt P09411)
Construct: His; made in house; host or cells: E. coli
Sequence (P09411 whole entry): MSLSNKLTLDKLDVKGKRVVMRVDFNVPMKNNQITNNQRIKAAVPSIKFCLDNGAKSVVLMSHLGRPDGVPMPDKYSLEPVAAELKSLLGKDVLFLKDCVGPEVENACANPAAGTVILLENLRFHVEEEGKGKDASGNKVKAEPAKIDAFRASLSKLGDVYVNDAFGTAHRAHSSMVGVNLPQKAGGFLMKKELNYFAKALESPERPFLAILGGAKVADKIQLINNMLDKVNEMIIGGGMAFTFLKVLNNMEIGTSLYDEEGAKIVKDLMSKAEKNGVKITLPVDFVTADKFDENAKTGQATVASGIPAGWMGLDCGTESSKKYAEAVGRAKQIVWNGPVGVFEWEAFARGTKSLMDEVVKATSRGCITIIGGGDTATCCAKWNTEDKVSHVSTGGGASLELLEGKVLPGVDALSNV
METHOD NOTES: Activity assay of pgk1 (GAPDH-coupled, absorbance at 340 nm)
Assay type: biochemical
STUDY CONDITIONS: read-out: Activity* (the times of pgk1 activity induced by 0.02µg/ml of the tested compound)
PROPERTY LABEL: fold induction at 0.02 µg/mL
API note: the answer field is a bare number with no unit suffix.

Known fold induction at 0.02 µg/mL results, listed for orientation:
COc1cc2nc(N3CCN(C(=O)C4CCCO4)CC3)nc(NC(C)=O)c2cc1OC (stereo not drawn) [Co.1] | 2.9
COc1c(OC)c(OC)c2c(N)nc(N3CCN(C(=O)C4CCCO4)CC3)nc2c1F (stereo not drawn) [Co.28] | 1.2
COc1cc2nc(N3CCN(C(=O)C4CCCO4)CC3)nc(N3CCCCC3)c2cc1OC (stereo not drawn) [Co.10] | 0.7
COc1cc2nc(N3CCN(C(=O)C4CCCO4)CC3)nc(NC(=O)c3ccccc3)c2cc1OC (stereo not drawn) [Co.14] | 1.5
COc1cc2c(N)nc(N3CCN(C(=O)C4CCCO4)CC3)nc2cc1F (stereo not drawn) [Co.18] | 1.3
CCOCCOc1cc2nc(N3CCN(C(=O)C4CCCO4)CC3)nc(N)c2cc1OCCOCC (stereo not drawn) [Co.16] | 1.7

The observed fold induction at 0.02 µg/mL for C=CCNc1nc(N2CCN(C(=O)C3CCCO3)CC2)nc2cc(OC)c(OC)cc12 (stereo not drawn) [Co.5] when tested with pgk1 (Mus musculus, UniProt P09411) stands at 1.5

The observed fold induction at 0.02 µg/mL for Nc1nc(N2CCN(C(=O)C3CCCO3)CC2)nc2cc3cccnc3cc12 (stereo not drawn) [Co.20] when tested with pgk1 (Mus musculus, UniProt P09411) stands at 1.9

The observed fold induction at 0.02 µg/mL for COc1cc2nc(N3CCN(C(=O)C4CCCO4)CC3)nc(NN)c2cc1OC (stereo not drawn) [Co.3] when tested with pgk1 (Mus musculus, UniProt P09411) stands at 1.9
